# Test system: E. faecium ATCC 700221
# Type: cell-based, Enterococcus faecium
# study_conditions: ATCC 700221, 18 h
Kindly state MIC for each of the entries shown.
One number for each entry, in µg/mL.

Below: 4 molecules and their reported MIC.
>  <molecule>
CCCCCCCCCCCCCCCC(=O)N[C@@H](CCCC[N+](C)(C)C)C(N)=O [Peptide 1Pq, C16-K(Me3)^+-NH2]

>  <target>
E. faecium ATCC 700221

>  <reading_unit>
µg/mL

>  <recorded_value>
16

$$$$
>  <molecule>
CCCCCCCCCCCCCCCC(=O)N[C@@H](CCCC[N+](C)(C)C)C(=O)N[C@@H](CCCC[N+](C)(C)C)C(=O)N[C@@H](CCCC[N+](C)(C)C)C(N)=O [Peptide 3Pq, C16-K(Me3)^+K(Me3)^+K(Me3)^+-NH2]

>  <target>
E. faecium ATCC 700221

>  <reading_unit>
µg/mL

>  <recorded_value>
32

$$$$
>  <molecule>
CCCCCCCCCCCCCC(=O)N[C@@H](CCCC[N+](C)(C)C)C(N)=O [Peptide 1Mq, C14-K(Me3)^+-NH2]

>  <target>
E. faecium ATCC 700221

>  <reading_unit>
µg/mL

>  <recorded_value>
32

$$$$
>  <molecule>
CCCCCCCCCCCCCCCC(=O)N[C@@H](CCCCN)C(=O)N[C@@H](CCCCN)C(=O)N[C@@H](CCCCN)C(N)=O [Peptide 3P, C16-KKK-NH2]

>  <target>
E. faecium ATCC 700221

>  <reading_unit>
µg/mL

>  <recorded_value>
8

$$$$

I'm hoping you can list MIC for every molecule here, please.
1. CCCCCCCCCCCCCCCCCC(=O)N[C@@H](CCCCN)C(=O)N[C@@H](CCCCN)C(=O)N[C@@H](CCCCN)C(N)=O [Peptide 3S, C18-KKK-NH2]
2. CCCCCCCCCCCCCCCC(=O)N[C@@H](CCCCN)C(N)=O [Peptide 1P, C16-K-NH2]

Marked response:
1. 4
2. 4
